- TEST: Metabolic stability in rat liver microsomes assessed as compound remaining at 1 uM after 30 mins in presence of NADPH regeneration system by LC-MS/MS analysis
- Type: ADME, Microsome
- CONDITION NOTES: read-out: Stability
I'd appreciate it if you marked entries True when remaining at 0.5 h, 1 µM is lower than 60% and False when it is not.

// query In the record for `Cc1ccc(/C(=C(\CCCO)c2ccccc2)c2ccc(N3CCNCC3)cc2)cc1.Cl.Cl` , is remaining at 0.5 h, 1 µM less than 60%?
// result False

// query In the record for `CC(C)N1CCN(c2ccc(/C(=C(/CCCO)c3ccccc3)c3ccc(Br)cc3)cc2)CC1.Cl.Cl` , is remaining at 0.5 h, 1 µM less than 60%?
// result False

// query In the record for `CC(C)N1CCN(c2ccc(/C(=C(/CCCO)c3ccccc3)c3cccc(O)c3)cc2)CC1.Cl.Cl` , is remaining at 0.5 h, 1 µM less than 60%?
// result True

// query In the record for `CCN1CCN(c2ccc(/C(=C(/CCCO)c3ccccc3)c3ccc(C)cc3)cc2)CC1.Cl.Cl` , is remaining at 0.5 h, 1 µM less than 60%?
// result False

// query In the record for `CC(C)N1CCN(c2ccc(/C(=C(/CCCO)c3ccccc3)c3cccc(Br)c3)cc2)CC1` , is remaining at 0.5 h, 1 µM less than 60%?
// result True

* * *

- SYSTEM TESTED: CYP1A2 (Homo sapiens)
- Sequence (P05177 whole entry): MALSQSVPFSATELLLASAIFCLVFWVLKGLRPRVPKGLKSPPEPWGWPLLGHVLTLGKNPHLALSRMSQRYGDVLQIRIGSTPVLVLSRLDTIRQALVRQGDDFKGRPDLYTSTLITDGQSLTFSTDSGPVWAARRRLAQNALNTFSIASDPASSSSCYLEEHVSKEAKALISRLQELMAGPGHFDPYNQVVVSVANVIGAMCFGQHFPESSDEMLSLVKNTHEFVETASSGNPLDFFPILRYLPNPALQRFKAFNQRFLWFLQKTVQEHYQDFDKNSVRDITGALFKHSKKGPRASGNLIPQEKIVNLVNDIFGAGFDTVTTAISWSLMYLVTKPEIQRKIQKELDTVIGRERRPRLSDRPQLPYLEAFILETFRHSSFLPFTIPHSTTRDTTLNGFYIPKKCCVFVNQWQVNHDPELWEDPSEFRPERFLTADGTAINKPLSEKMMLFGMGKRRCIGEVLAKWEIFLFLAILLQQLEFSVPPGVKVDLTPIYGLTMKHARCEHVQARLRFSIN
- TEST: Inhibition of CYP1A2 in human liver microsomes assessed as reduction in phenacetin O-deethylase activity at 10 uM preincubated for 5 mins followed by NADPH addition and measured after 15 mins by LC-MS/MS analysis relative to control
- Format: ADME
- CONDITION NOTES: probe phenacetin (O-deethylation)
Listing: inhibition at 0.25 h, 10 µM of selected molecules
Give the number; % is assumed, so skip it.

Cc1ccc(/C(=C(\CCCO)c2ccccc2)c2ccc(N3CCN(C)CC3)cc2)cc1.Cl.Cl : 0

The reported CYP1A2 (Homo sapiens) inhibition at 0.25 h, 10 µM of `CC(C)N1CCN(c2ccc(/C(=C(/CCCO)c3ccccc3)c3cccc(Br)c3)cc2)CC1` is 2.5

The reported CYP1A2 (Homo sapiens) inhibition at 0.25 h, 10 µM of `CC(C)N1CCN(c2ccc(/C(=C(/CCCO)c3ccccc3)c3ccc(O)cc3)cc2)CC1.Cl.Cl` is 12

The reported CYP1A2 (Homo sapiens) inhibition at 0.25 h, 10 µM of `CCN1CCN(c2ccc(/C(=C(/CCCO)c3ccccc3)c3ccc(C)cc3)cc2)CC1.Cl.Cl` is 0

The reported CYP1A2 (Homo sapiens) inhibition at 0.25 h, 10 µM of `Cc1ccc(/C(=C(\CCCO)c2ccccc2)c2ccc(N3CCN(C(C)C)CC3)cc2)cc1.Cl.Cl` is 10.2

The reported CYP1A2 (Homo sapiens) inhibition at 0.25 h, 10 µM of `CC(C)N1CCN(c2ccc(/C(=C(/CCCO)c3ccccc3)c3cccc(O)c3)cc2)CC1.Cl.Cl` is 0

* * *

- TEST: Metabolic stability in mouse liver microsomes assessed as compound remaining at 1 uM after 30 mins in presence of NADPH regeneration system by LC-MS/MS analysis
- Type: ADME, Microsome
- CONDITION NOTES: read-out: Stability
VALUE TYPE: remaining at 0.5 h, 1 µM (%)
Give the number; % is assumed, so skip it.

Solved entries:
Cc1ccc(/C(=C(\CCCO)c2ccccc2)c2ccc(N3CCNCC3)cc2)cc1.Cl.Cl : 28.8
Cc1ccc(/C(=C(\CCCO)c2ccccc2)c2ccc(N3CCN(C)CC3)cc2)cc1.Cl.Cl : 47.6
CCN1CCN(c2ccc(/C(=C(/CCCO)c3ccccc3)c3ccc(C)cc3)cc2)CC1.Cl.Cl : 54.9
CC(C)N1CCN(c2ccc(/C(=C(/CCCO)c3ccccc3)c3ccc(Br)cc3)cc2)CC1.Cl.Cl : 48.5
CC(C)N1CCN(c2ccc(/C(=C(/CCCO)c3ccccc3)c3ccc(O)cc3)cc2)CC1.Cl.Cl : 19.9

Form field remaining at 0.5 h, 1 µM, entry `CC(C)N1CCN(c2ccc(/C(=C(/CCCO)c3ccccc3)c3cccc(Br)c3)cc2)CC1` : 31

Form field remaining at 0.5 h, 1 µM, entry `Cc1ccc(/C(=C(\CCCO)c2ccccc2)c2ccc(N3CCN(C(C)C)CC3)cc2)cc1.Cl.Cl` : 19.7

Form field remaining at 0.5 h, 1 µM, entry `CC(C)N1CCN(c2ccc(/C(=C(/CCCO)c3ccccc3)c3cccc(O)c3)cc2)CC1.Cl.Cl` : 26.9

* * *

- SYSTEM TESTED: UniProt P33261
- Sequence (P33261 whole entry): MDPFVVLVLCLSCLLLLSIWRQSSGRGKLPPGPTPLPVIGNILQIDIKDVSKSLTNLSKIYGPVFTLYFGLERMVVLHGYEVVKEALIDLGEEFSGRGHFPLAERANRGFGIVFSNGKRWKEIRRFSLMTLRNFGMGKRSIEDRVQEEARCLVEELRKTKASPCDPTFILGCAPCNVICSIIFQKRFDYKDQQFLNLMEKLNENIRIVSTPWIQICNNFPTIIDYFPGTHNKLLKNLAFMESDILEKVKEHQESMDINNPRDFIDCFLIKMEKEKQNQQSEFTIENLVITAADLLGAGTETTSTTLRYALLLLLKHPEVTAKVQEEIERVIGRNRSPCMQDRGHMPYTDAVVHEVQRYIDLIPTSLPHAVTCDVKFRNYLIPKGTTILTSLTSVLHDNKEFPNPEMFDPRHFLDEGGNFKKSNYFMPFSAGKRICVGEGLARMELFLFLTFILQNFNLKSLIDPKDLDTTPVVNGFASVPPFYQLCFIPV
- TEST: Inhibition of CYP2C19 in human liver microsomes assessed as reduction in S-mephenytoin 4-hydroxylase activity at 10 uM preincubated for 5 mins followed by NADPH addition and measured after 15 mins by LC-MS/MS analysis relative to control
- Format: ADME
- CONDITION NOTES: probe S-mephenytoin (4-hydroxylation)
VALUE TYPE: inhibition at 0.25 h, 10 µM (%)
Give the number; % is assumed, so skip it.

Solved entries:
CCN1CCN(c2ccc(/C(=C(/CCCO)c3ccccc3)c3ccc(C)cc3)cc2)CC1.Cl.Cl : 26
CC(C)N1CCN(c2ccc(/C(=C(/CCCO)c3ccccc3)c3ccc(O)cc3)cc2)CC1.Cl.Cl : 18.8
Cc1ccc(/C(=C(\CCCO)c2ccccc2)c2ccc(N3CCNCC3)cc2)cc1.Cl.Cl : 57.7

Form field inhibition at 0.25 h, 10 µM, entry `CC(C)N1CCN(c2ccc(/C(=C(/CCCO)c3ccccc3)c3cccc(Br)c3)cc2)CC1` : 56.1

Form field inhibition at 0.25 h, 10 µM, entry `OCCC/C(=C(\c1ccc(Br)cc1)c1ccc(N2CCNCC2)cc1)c1ccccc1` : 38.1

Form field inhibition at 0.25 h, 10 µM, entry `CC(C)N1CCN(c2ccc(/C(=C(/CCCO)c3ccccc3)c3cccc(O)c3)cc2)CC1.Cl.Cl` : 0

Form field inhibition at 0.25 h, 10 µM, entry `Cc1ccc(/C(=C(\CCCO)c2ccccc2)c2ccc(N3CCN(C)CC3)cc2)cc1.Cl.Cl` : 27.2

Form field inhibition at 0.25 h, 10 µM, entry `CC(C)N1CCN(c2ccc(/C(=C(/CCCO)c3ccccc3)c3ccc(Br)cc3)cc2)CC1.Cl.Cl` : 13.7

Form field inhibition at 0.25 h, 10 µM, entry `Cc1ccc(/C(=C(\CCCO)c2ccccc2)c2ccc(N3CCN(C(C)C)CC3)cc2)cc1.Cl.Cl` : 30.3

* * *

Listing: pIC50 of selected compounds
- SYSTEM TESTED: Steroid hormone receptor ERR2 (Homo sapiens, UniProt O95718)
- Sequence (O95718 whole entry): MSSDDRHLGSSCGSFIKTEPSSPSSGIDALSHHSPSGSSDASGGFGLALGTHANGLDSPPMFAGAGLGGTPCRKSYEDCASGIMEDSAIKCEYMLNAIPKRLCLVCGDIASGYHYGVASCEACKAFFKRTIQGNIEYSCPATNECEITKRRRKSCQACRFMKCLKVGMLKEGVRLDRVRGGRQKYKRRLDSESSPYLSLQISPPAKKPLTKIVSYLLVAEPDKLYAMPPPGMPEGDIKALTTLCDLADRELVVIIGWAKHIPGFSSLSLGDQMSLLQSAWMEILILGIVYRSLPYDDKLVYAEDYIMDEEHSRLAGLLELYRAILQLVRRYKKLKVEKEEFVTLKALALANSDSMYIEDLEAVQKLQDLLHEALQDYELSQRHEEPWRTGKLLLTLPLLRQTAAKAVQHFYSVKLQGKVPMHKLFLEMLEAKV
Units for pIC50: none; it is -log10 of a concentration expressed in mol/L.

Solved entries:
OCCC/C(=C(\c1ccc(O)cc1)c1ccc(N2CCNCC2)cc1)c1ccccc1 : 5.34
Cc1ccc(/C(=C(\CCCO)c2ccccc2)c2ccc(N3CCNCC3)cc2)cc1.Cl.Cl : 5.68

// next item, pIC50 requested
The reported Steroid hormone receptor ERR2 (Homo sapiens, UniProt O95718) pIC50 of `CN1CCN(c2ccc(/C(=C(/CCCO)c3ccccc3)c3ccc(O)cc3)cc2)CC1` is 5.70

* * *

- TEST: Metabolic stability in rat liver microsomes assessed as compound remaining at 1 uM after 30 mins in presence of NADPH regeneration system by LC-MS/MS analysis
- Assay type: ADME, Microsome
- CONDITION NOTES: read-out: Stability
VALUE TYPE: remaining at 0.5 h, 1 µM
Field note: include the unit after the figure.

Solved entries:
Cc1ccc(/C(=C(\CCCO)c2ccccc2)c2ccc(N3CCN(C)CC3)cc2)cc1.Cl.Cl : 65.7%
CC(C)N1CCN(c2ccc(/C(=C(/CCCO)c3ccccc3)c3ccc(O)cc3)cc2)CC1.Cl.Cl : 32.5%

Form field remaining at 0.5 h, 1 µM, entry `Cc1ccc(/C(=C(\CCCO)c2ccccc2)c2ccc(N3CCN(C(C)C)CC3)cc2)cc1.Cl.Cl` : 40%

* * *

- TEST: Metabolic stability in human liver microsomes assessed as compound remaining at 1 uM after 30 mins in presence of NADPH regeneration system by LC-MS/MS analysis
- Type: ADME, Microsome
- CONDITION NOTES: read-out: Stability
I'd appreciate it if you marked entries Yes when remaining at 0.5 h, 1 µM is lower than 50% and No when it is not.

Solved entries (count: 5):
CC(C)N1CCN(c2ccc(/C(=C(/CCCO)c3ccccc3)c3cccc(O)c3)cc2)CC1.Cl.Cl : No
CCN1CCN(c2ccc(/C(=C(/CCCO)c3ccccc3)c3ccc(C)cc3)cc2)CC1.Cl.Cl : No
CC(C)N1CCN(c2ccc(/C(=C(/CCCO)c3ccccc3)c3cccc(Br)c3)cc2)CC1 : No
CC(C)N1CCN(c2ccc(/C(=C(/CCCO)c3ccccc3)c3ccc(O)cc3)cc2)CC1.Cl.Cl : Yes
CC(C)N1CCN(c2ccc(/C(=C(/CCCO)c3ccccc3)c3ccc(Br)cc3)cc2)CC1.Cl.Cl : No

# evaluate next
// query In the record for `Cc1ccc(/C(=C(\CCCO)c2ccccc2)c2ccc(N3CCNCC3)cc2)cc1.Cl.Cl` , is remaining at 0.5 h, 1 µM less than 50%?
// result Yes
